study_target: Aldehyde dehydrogenase, dimeric NADP-preferring (Homo sapiens, UniProt P30838)
Sequence (P30838 whole entry): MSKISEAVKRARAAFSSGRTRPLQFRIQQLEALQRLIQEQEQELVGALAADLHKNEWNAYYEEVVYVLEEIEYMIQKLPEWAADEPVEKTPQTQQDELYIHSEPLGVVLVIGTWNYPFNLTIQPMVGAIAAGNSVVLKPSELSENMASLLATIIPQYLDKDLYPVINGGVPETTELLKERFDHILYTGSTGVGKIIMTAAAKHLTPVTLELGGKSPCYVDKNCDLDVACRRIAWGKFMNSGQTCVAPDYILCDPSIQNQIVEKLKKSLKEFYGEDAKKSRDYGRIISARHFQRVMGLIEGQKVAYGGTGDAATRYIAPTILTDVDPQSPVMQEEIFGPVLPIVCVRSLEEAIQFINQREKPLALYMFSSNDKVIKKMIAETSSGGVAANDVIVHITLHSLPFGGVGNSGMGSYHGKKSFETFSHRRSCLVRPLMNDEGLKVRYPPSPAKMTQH
assay_notes: Inhibition of recombinant human ALDH3A1 using benzaldehyde as substrate preincubated for 2 mins with NAD+ followed by substrate addition by UV-Vis spectrophotometric analysis
property_name: IC50

Reported IC50 for "Cn1c(=O)c2c(nc(SCC(N)=O)n2Cc2ccccc2F)n(C)c1=O" : what is it? > 100 µM

* * *

study_target: Aldehyde dehydrogenase, mitochondrial (Homo sapiens)
assay_notes: Activation of recombinant human ALDH2 using propionaldehyde as substrate at 20 uM preincubated for 2 mins with NAD+ followed by substrate addition by UV-Vis spectrophotometric analysis
property_name: Activity

Guide cases for Activity, answers given:
CC(C)CCn1c(CN2CCN(C(=O)c3ccco3)CC2)nc2c1c(=O)n(C)c(=O)n2C
< 10%
CC(C)CCn1c(CN2CCC(C)CC2)nc2c1c(=O)n(C)c(=O)n2C
< 10%
Cn1c(=O)c2c(nc(CN3CCC(C(N)=O)CC3)n2CCCc2ccccc2)n(C)c1=O
< 10%
CCCCn1c(CN2CCN(c3ccc(OC)cc3)CC2)nc2c1c(=O)n(C)c(=O)n2C
< 10%
Cn1c(=O)c2c(nc(N3CCOCC3)n2Cc2ccccc2F)n(C)c1=O
< 10%
Cn1c(=O)c2c(nc(N3CCN(Cc4ccccc4)CC3)n2Cc2cccc(Cl)c2)n(C)c1=O
< 10%

As a next step, examine the compound that follows.
Reported Activity for "CCCCn1c(CN2CCN(c3cccc(Cl)c3)CC2)nc2c1c(=O)n(C)c(=O)n2C" : what is it? < 10%

* * *

study_target: Retinaldehyde dehydrogenase 3 (Homo sapiens)
assay_notes: Activation of recombinant human ALDH1A3 using propionaldehyde as substrate at 20 uM preincubated for 2 mins with NAD+ followed by substrate addition by UV-Vis spectrophotometric analysis
property_name: Activity

Reported Activity for "Cn1c(=O)c2c(nc(SCC(N)=O)n2Cc2ccccc2F)n(C)c1=O" : what is it? < 10%

Reported Activity for "CCCCn1c(CN2CCN(c3cccc(Cl)c3)CC2)nc2c1c(=O)n(C)c(=O)n2C" : what is it? < 10%

Reported Activity for "CC(C)CCn1c(CN2CCC(C)CC2)nc2c1c(=O)n(C)c(=O)n2C" : what is it? < 10%

Reported Activity for "CCCCn1c(Oc2ccc(C(=O)OC)cc2)nc2c1c(=O)n(C)c(=O)n2C" : what is it? < 10%

Reported Activity for "Cn1c(=O)c2c(nc(N3CCN(Cc4ccccc4)CC3)n2Cc2cccc(Cl)c2)n(C)c1=O" : what is it? < 10%

Reported Activity for "Cc1cccc(Cn2c(CN3CCN(C(=O)c4ccco4)CC3)nc3c2c(=O)n(C)c(=O)n3C)c1" : what is it? < 10%

Reported Activity for "CC(C)CCn1c(CN2CCN(C(=O)c3ccco3)CC2)nc2c1c(=O)n(C)c(=O)n2C" : what is it? < 10%
